Where do these numbers come from? They come from patent US20090117043A1.

Target: T1, mature form of the neurokinin B polypeptide (amino acids 81 to 90 of SEQ ID NO:2) (human, ends and bridges not checked)
T1 construct: also called NKB; neurokinin 3 (NK3)
T1 peptide: DMHDFFVGLM
Test: phage display selection of scFvs; conditions not given
Where no end group is shown, it is not given here.

BINDER	binding result
NO24D08 (scFv) scFv: EVQLVQSGAEVKRPGASVKISCRTSGYTFTSYYIHWVRQAPGQGLEWLAIINPTAGNTYYTQDFQDRVTVTRDTSTSTVYMELRGLNSEDTAVYYCASPYGVRNAFDVWGQGTMVTVSSGGGGSGGGGSGGGGSQSVLTQPPSVSAAPGQKVTISCSGSTSNIGNNYVSWYQQHPGKAPKLMIYDVSKRPSGVPDRFSGSKSGNSASLDISGLQSEDEADYYCAAWDDSLSEFLFGTGTKLTVLG	binds
